Reference source for all entries: patent US9096524B2

# System: Haemonchus contortus
# Assay notes: Efficacy against Haemonchus contortus in jirds
# Type: in vivo, jirds (Meriones unguiculatus)
# Experimental conditions: 72 h, jirds, 10 mg/kg, oral, single treatment, larvae burden in stomach 3 days after treatment, read-out: % Reduction in H.
Reported inhibition in vivo at 10 mg/kg values for a set of compounds
Reported property: inhibition in vivo at 10 mg/kg (%)

C[C@@H](CN1CCN(c2ccc(C(F)(F)F)cc2)CC1)C(=O)N1CCC(Nc2ccc([N+](=O)[O-])c(C(F)(F)F)c2)CC1 [Example 68] | 99
N#Cc1ccc(NC2CCN(C(=O)CCCN3CCN(c4ccc(C(F)(F)F)cn4)CC3)CC2)cc1C(F)(F)F [Example 157] | 96
O=C(CCCN1CCN(c2ccc(C(F)(F)F)cc2)CC1)NC1CCN(c2ccc(SC(F)(F)F)cc2)CC1 [Example 76] | 67
O=C(CCCN1CCN(c2ccc(C(F)(F)F)cc2)CC1)NC1CCN(c2ccc([N+](=O)[O-])c(C(F)(F)F)c2)CC1 [Example 73] | 54
